# target entity: CRF1R
# experiment notes: cell-based or functional assay
Ends that are not written are not given here.
experimental readout: CRF1R EC50

INSERT INTO measurements (binder, reported) VALUES
  ('IVLSLDVPIGLLQILLEQAAREQATTNARILARV-NH2 [SEQ ID NO 138]', '> 100 nM');

Just so you know, measured CRF1R EC50 for ZGPPISIDVPTYLLRKMIEIEKQEKEKQQATTNARILARV (C-terminal amide) [SEQ ID NO 170] came out at 1000 nM
